Hey, just so you know, these numbers are from PubChem BioAssay (NCATS).

Assay: Primary qHTS for inhibitors of nuclear receptor binding SET domain protein 2 (NSD2) in an isogenic RCH-ACV NSD2 p.E1099K mutant (9B) (AID 1645876); further: nearly all actives have a fitted effect of over 70% in size
Conditions: RCH-ACV (leukaemia line) NSD2 E1099K (9B) viability, CellTiter-Glo, 72 h; series mostly up to 44.9 µM
Results filed as inconclusive are left out. Calls of active or inactive are those of the source. The call rests on the fitted dose curve; in most records, active means well fitted inhibition curve with a large enough effect; inconclusive means small, poorly fitted or top-dose-only effect; inactive means flat fitted curve, though single readings scatter.
Possible outcomes: Yes (active), No (inactive)

COMPOUND	CLASS_ASSIGNMENT
C=CC1(C)C=C2C(=O)OC(=O)C3=C(CCCC3(C)C)C2(O)CC1 (centres undefined)	No
CCC(Nc1ncnc2nc[nH]c12)c1nc2cccc(F)c2c(=O)n1-c1ccccc1 (centres undefined)	Yes
OC[C@H]1O[C@@H](OCCc2ccc(O)cc2)[C@H](O[C@@H]2OC[C@](O)(CO)[C@H]2O)[C@@H](O)[C@@H]1O	No
C[C@@H]1O[C@@H](O[C@H]2[C@@H]3C=CO[C@@H](O[C@@H]4O[C@H](CO)[C@@H](O)[C@H](O)[C@H]4O)[C@@H]3[C@@]3(CO)O[C@@H]23)[C@H](OC(=O)/C=C/c2ccccc2)[C@H](O)[C@H]1O	No
C=C1C[C@]23C[C@H]1[C@@H](O)C[C@H]2[C@@]12C=C[C@H](O)[C@@](C)(C(=O)O1)[C@H]2[C@@H]3C(=O)O	No
CC(=O)SCC(=O)c1ccc(NS(=O)(=O)c2ccc(OCCCN(C)C)cc2)nc1	Yes
CC(O)CO[C@@H]1O[C@H](CO)[C@@H](O)[C@H](O)[C@H]1O (some centres undefined)	No
CC(C)CCC1(O)C(=O)C(C)(C)C(O[C@@H]2O[C@H](CO)[C@@H](O)[C@H](O)[C@H]2O)C(C)(C)C1O (some centres undefined)	No
C#CC[C@H](c1nc2cc(Cl)ccc2c(=O)n1Nc1ccccc1)N(CCCN)C(=O)c1cccc(Cl)c1F	Yes
CC(=O)C12OC(C)(C)OC1CC1C3CCC4=CC(=O)C=CC4(C)C3(F)C(O)CC12C (centres undefined)	No
CC(=O)O[C@@H]1[C@@H](O)[C@H](C)O[C@@H](O[C@H]2[C@@H]3C=CO[C@@H](O[C@@H]4O[C@H](CO)[C@@H](O)[C@H](O)[C@H]4O)[C@@H]3[C@@]3(CO)O[C@@H]23)[C@@H]1OC(=O)/C=C/c1ccccc1	No
CCNC(=O)Nc1ncc(-c2cc(-c3c(C)cc(OC)cc3C)nc(-c3cnccn3)n2)s1	No
COc1cc2nc(N3CCCC3)nc(NCCCCCN3CCCC3)c2cc1OC	Yes
C[C@@H]1CCC2C(C)(C)[C@H](O)CC[C@]2(C)[C@@]12Cc1c(O)cc3c(c1O2)CNC3=O (some centres undefined)	No
C=C(CCC1=C(C)[C@H]2[C@H](CC3[C@@H]4CC=C5C[C@@H](O)C[C@@H](O)[C@]5(C)C4[C@H](O)C[C@@]32C)O1)CO[C@@H]1O[C@H](CO)[C@@H](O)[C@H](O)[C@H]1O (some centres undefined)	Yes
C#CCN(Cc1cc2c(=O)[nH]c(C)nc2cc1Br)c1ccc(C(=O)NCc2cccnc2)cc1	No
C=C[C@@](C)(O)CC/C=C(\C)C(=O)O[C@@H]1[C@@H]2O[C@]2(C)[C@H]2[C@H](O[C@@H]3O[C@H](CO)[C@@H](O)[C@H](O)[C@H]3O)OC=C[C@@]12O	No
N#Cc1ccc(-c2cnc3[nH]cc(NC(=O)c4cccnc4)c3c2)cc1	Yes
NC(=O)[C@H]1CCS[C@@H]2C[C@]3(CCCN3C(=O)Cc3ccc(NC(=O)COc4ccc(Cl)cc4Cl)cc3)C(=O)N12	Yes
CCc1cc(CN2CC(C(=O)O)C2)sc1-c1noc(-c2ccc(Oc3ccccc3)cc2)n1	Yes
O=C(/C=C\n1cnc(-c2cc(C(F)(F)F)cc(C(F)(F)F)c2)n1)N1CC(F)(F)C1	Yes
Cn1cncc1C(N)(c1ccc(Cl)cc1)c1ccc2c(c1)c(-c1cccc(Cl)c1)cc(=O)n2C (centres undefined)	Yes
CC(=O)N[C@@H](C(=O)O[C@H]1CCC(C)(C)[C@@H]2CCC3=C(COC3=O)[C@@]12C)C(C)C	No
CCOC(=O)C(CCc1ccccc1)NC1CSC(c2cccs2)CN(CC(=O)O)C1=O (centres undefined)	No
